B1: Double-stranded RNA-binding protein Staufen homolog 1, residues 183 to 249; numbered along this chain, O95793 (parent)
chain: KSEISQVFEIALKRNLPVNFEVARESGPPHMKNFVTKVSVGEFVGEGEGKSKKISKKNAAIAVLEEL

- Variants of: B1
- test description: abundance fitness (aPCA) (normalised: wild type 0, dead -1); higher = more abundant; growth selection in yeast, the domain comes from the species named
- measurement parameters: Homo sapiens
Decision: abundance fitness compared against -0.3; not below it gives rule met, below it gives rule not met.

>  <residue codes>
KSEISQVFEIALKRNLPVNFEVARESGPPHMKNFVTKVSYGEFVGEGEGKSKKISKKNAAIAVLEEL [V40Y]

>  <answer label>
rule not met

$$$$
>  <residue codes>
KSEISQVFEIALKRNLPVNFEVARESGPPHMKNFVTKVSVGEFVGEGEGKSKKICKKNAAIAVLEEL [S55C]

>  <answer label>
rule not met

$$$$
>  <residue codes>
KSEISQVFEIALKRNLPVNFEVARESGPPHMKNFVTTVSVGEFVGEGEGKSKKISKKNAAIAVLEEL [K37T]

>  <answer label>
rule not met

$$$$
>  <residue codes>
KSEISQVFEIALKRNLPVNFEVARESGPPHMKNFVTKVVVGEFVGEGEGKSKKISKKNAAIAVLEEL [S39V]

>  <answer label>
rule met

$$$$
>  <residue codes>
KSEISQVFEIPLKRNLPVNFEVARESGPPHMKNFVTKVSVGEFVGEGEGKSKKISKKNAAIAVLEEL [A11P]

>  <answer label>
rule not met

$$$$
>  <residue codes>
KSEISQVFEIALKRNLPVNFEVARESGPPHMKNFVTKVSVGEFVGEGEGKSKKISKKNAAIAVFEEL [L64F]

>  <answer label>
rule not met

$$$$
>  <residue codes>
KSEISQVFEIALKRNLPVNFEVARESGPPHMKNFVTKVSVGEFVREGEGKSKKISKKNAAIAVLEEL [G45R]

>  <answer label>
rule met

$$$$
>  <residue codes>
KSEISQVFEIALKRNLPVNFEVARESGPPHMKNFVTKVSVGEFVGEGEGKSKKIVKKNAAIAVLEEL [S55V]

>  <answer label>
rule not met

$$$$
>  <residue codes>
KKEISQVFEIALKRNLPVNFEVARESGPPHMKNFVTKVSVGEFVGEGEGKSKKISKKNAAIAVLEEL [S2K]

>  <answer label>
rule met

$$$$
>  <residue codes>
KSEISQVFEIALKRNLPVNFEVARESGPPHMKNFVTKVSVGDFVGEGEGKSKKISKKNAAIAVLEEL [E42D]

>  <answer label>
rule met

$$$$
>  <residue codes>
KSEISQVFEIALKRNLPVNFEVMRESGPPHMKNFVTKVSVGEFVGEGEGKSKKISKKNAAIAVLEEL [A23M]

>  <answer label>
rule met

$$$$
>  <residue codes>
KSEISQVFEIRLKRNLPVNFEVARESGPPHMKNFVTKVSVGEFVGEGEGKSKKISKKNAAIAVLEEL [A11R]

>  <answer label>
rule not met

$$$$
>  <residue codes>
KSEISQVFEIALKRNLPVNFEVARESGPPHMKNFVTKVSVGEFVGEGEGKSKKISKKLAAIAVLEEL [N58L]

>  <answer label>
rule met

$$$$
>  <residue codes>
KSETSQVFEIALKRNLPVNFEVARESGPPHMKNFVTKVSVGEFVGEGEGKSKKISKKNAAIAVLEEL [I4T]

>  <answer label>
rule not met

$$$$
>  <residue codes>
KSEISQVFEIALKRNLPVNFEVARESGPPHMKNFETKVSVGEFVGEGEGKSKKISKKNAAIAVLEEL [V35E]

>  <answer label>
rule not met

$$$$
>  <residue codes>
KSEISQVFPIALKRNLPVNFEVARESGPPHMKNFVTKVSVGEFVGEGEGKSKKISKKNAAIAVLEEL [E9P]

>  <answer label>
rule not met

$$$$
>  <residue codes>
KSEISQVFEIALKRNLPVNFEVARESGPPHMKQFVTKVSVGEFVGEGEGKSKKISKKNAAIAVLEEL [N33Q]

>  <answer label>
rule met

$$$$
>  <residue codes>
KSEISQVFEIALKRNLPVNFEVARESGPPHMKNFVTKVSVGEFVGEGEGKSKKIDKKNAAIAVLEEL [S55D]

>  <answer label>
rule not met

$$$$
>  <residue codes>
KSEISQVFEIALARNLPVNFEVARESGPPHMKNFVTKVSVGEFVGEGEGKSKKISKKNAAIAVLEEL [K13A]

>  <answer label>
rule met

$$$$
>  <residue codes>
KSEISQVFEIALKRNLPVNFETARESGPPHMKNFVTKVSVGEFVGEGEGKSKKISKKNAAIAVLEEL [V22T]

>  <answer label>
rule met

$$$$
>  <residue codes>
KSEISQVFEIALKRNLPVNFEQARESGPPHMKNFVTKVSVGEFVGEGEGKSKKISKKNAAIAVLEEL [V22Q]

>  <answer label>
rule met

$$$$
>  <residue codes>
KSEISQVFEIALKRNLPVNFEVARESGPPHMKNFVTKVSVGEAVGEGEGKSKKISKKNAAIAVLEEL [F43A]

>  <answer label>
rule met

$$$$
>  <residue codes>
KSEISQVFEIALKRNLPVNFEVARESGPPHMKNFVTKVSVGEFVGEGEGKSKKISKKNHAIAVLEEL [A59H]

>  <answer label>
rule not met

$$$$
>  <residue codes>
KSEISQVFEIALKRNLPVNFEVARESGPPHMKNFVTKVSVGEFVGEGEGKSKKISKKNAAFAVLEEL [I61F]

>  <answer label>
rule not met

$$$$
>  <residue codes>
KSEISQVFEIALKRNLPVNFEVARESGPPHMKNFVTKVSVGEFVGEGEGKSKKINKKNAAIAVLEEL [S55N]

>  <answer label>
rule not met

$$$$
>  <residue codes>
KSEISQVFEIALKRNLPVNFEVARESGPRHMKNFVTKVSVGEFVGEGEGKSKKISKKNAAIAVLEEL [P29R]

>  <answer label>
rule met

$$$$
>  <residue codes>
KSEISQVFEIALKRNLPVNFEVARESGPPHMKNFVTKVSVGEFVGEGEGKSKKISKKMAAIAVLEEL [N58M]

>  <answer label>
rule met

$$$$
>  <residue codes>
KSEISQVFEIALKRNLPVNFEVARESGPPHMKNFVTKVSVGEFVGEGYGKSKKISKKNAAIAVLEEL [E48Y]

>  <answer label>
rule met

$$$$
>  <residue codes>
KSEISQVFEIALKRNLPVNFEVARESGPPHMKNFVTKVSVGEFVGEGEGLSKKISKKNAAIAVLEEL [K50L]

>  <answer label>
rule met

$$$$
>  <residue codes>
KSEISQVFEIALKRNLPVNFEVARESGPPHMKNFVTKVSVGEFVGEGEGKSKKISKKNAAIAVLEEQ [L67Q]

>  <answer label>
rule not met

$$$$
>  <residue codes>
KSEISQVFEIALKRNLPVNFEVARESGPPHMKNFVTKVSVGEFVGEGEGKSKKISKKNWAIAVLEEL [A59W]

>  <answer label>
rule not met

$$$$
>  <residue codes>
KSEISQVFEIALKRNLPVNFEVARESGPPHMKNFVTKVSVGEFVGEGEGKSKKISKKNRAIAVLEEL [A59R]

>  <answer label>
rule not met

$$$$
>  <residue codes>
KSEISQVFEIALKRTLPVNFEVARESGPPHMKNFVTKVSVGEFVGEGEGKSKKISKKNAAIAVLEEL [N15T]

>  <answer label>
rule not met

$$$$
>  <residue codes>
KSEISQVNEIALKRNLPVNFEVARESGPPHMKNFVTKVSVGEFVGEGEGKSKKISKKNAAIAVLEEL [F8N]

>  <answer label>
rule not met

$$$$
>  <residue codes>
KSEISQVFEIALKRNLPVNFEVARESGPPHMKNFVTKVSVGEFVGEGRGKSKKISKKNAAIAVLEEL [E48R]

>  <answer label>
rule met

$$$$
>  <residue codes>
KSEISQVFEIALKRNLPVNFEVARESGPPHMKNFVTIVSVGEFVGEGEGKSKKISKKNAAIAVLEEL [K37I]

>  <answer label>
rule not met

$$$$
>  <residue codes>
KSEISQVFEIALKRNLPVNFEVARESGPPHMKNFVTKVSVGEFVGEGEAKSKKISKKNAAIAVLEEL [G49A]

>  <answer label>
rule not met

$$$$
>  <residue codes>
KSEISQVFEIALKRNLYVNFEVARESGPPHMKNFVTKVSVGEFVGEGEGKSKKISKKNAAIAVLEEL [P17Y]

>  <answer label>
rule met

$$$$
>  <residue codes>
KSEISQVFEIALKRNLPVNFEVARESGPLHMKNFVTKVSVGEFVGEGEGKSKKISKKNAAIAVLEEL [P29L]

>  <answer label>
rule met

$$$$
>  <residue codes>
KSEISQVFEIALKRNLPVNFEVARESGPPHMYNFVTKVSVGEFVGEGEGKSKKISKKNAAIAVLEEL [K32Y]

>  <answer label>
rule met

$$$$
>  <residue codes>
KSEISQVFEIALKRNLPVNFEVARESGPPHMKNYVTKVSVGEFVGEGEGKSKKISKKNAAIAVLEEL [F34Y]

>  <answer label>
rule met

$$$$
>  <residue codes>
KSEISQVFEIALKRNLPVNFEVARESGPPHMKNFVTKVSVGEFVGEGEGKSKKISYKNAAIAVLEEL [K56Y]

>  <answer label>
rule met

$$$$
>  <residue codes>
KSEISQVFEIALKRNLPVNFEVARESGPPHMKNFVTKVSVGEFVGEGEGKSKKISKKNAAISVLEEL [A62S]

>  <answer label>
rule met

$$$$
>  <residue codes>
KSEISQVFEIALKRNLPVNFEVARESGPPHMKNFVTKVSVGEFVGEWEGKSKKISKKNAAIAVLEEL [G47W]

>  <answer label>
rule not met

$$$$
>  <residue codes>
KSEISQVFEIALKRNLPVNFEVARESGPPHMKNFVTKVSVGEFVGIGEGKSKKISKKNAAIAVLEEL [E46I]

>  <answer label>
rule met

$$$$
